Assay procedure: chemical genetic growth profiling, strain panel (AID 1159580);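 note: tested at 20 µM; growth read once vehicle control cultures reached saturation at 30 °C; 1 = growth at the plate median or of vehicle wells; lower values mean less growth of the strain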
Measurement setup: S. cerevisiae deletion strains, growth OD, locus YEL037C, strain rad23, active compounds read low
Hit rate of the full screen: of about 5,500 compounds, about 2,000 (36%) were called active. About 18% were inconclusive and are not listed. The list shows a part of the results.
Below is a list of entries, each paired with its recorded normalized growth value.
Measurement kind: normalized growth

[
  {
    "Molecule": "Cc1cc(O)c(C=O)c2c1C(=O)Oc1c(COC(=O)/C=C/C(=O)O)c(O)c(C(=O)O)c(C)c1O2",
    "Recorded measurement": 0.939
  },
  {
    "Molecule": "CC(CN(C)C)CN1c2ccccc2CCc2ccccc21 (centres undefined)",
    "Recorded measurement": 0.954
  },
  {
    "Molecule": "COc1c(Cl)ccc(Cl)c1C(=O)O",
    "Recorded measurement": 0.985
  },
  {
    "Molecule": "CCCCS(=N)(=O)CCC(N)C(=O)O (centres undefined)",
    "Recorded measurement": 0.99
  },
  {
    "Molecule": "O=c1cc(-c2ccc(O)cc2)oc2cc(O)ccc12",
    "Recorded measurement": 0.952
  },
  {
    "Molecule": "CC(=O)Nc1ccccc1",
    "Recorded measurement": 0.972
  },
  {
    "Molecule": "CNC(=O)Oc1ccc2c(c1)[C@]1(C)CCN(C)[C@@H]1N2C",
    "Recorded measurement": 1.01
  },
  {
    "Molecule": "C=C[C@H]1CN2CC[C@H]1C[C@@H]2[C@H](O)c1ccnc2ccccc12",
    "Recorded measurement": 0.983
  },
  {
    "Molecule": "COc1cc([C@@H]2c3cc4c(cc3[C@H](OC(C)=O)[C@H]3COC(=O)[C@@H]23)OCO4)cc(OC)c1OC",
    "Recorded measurement": 0.985
  },
  {
    "Molecule": "O=c1[nH]cnc2[nH]ncc12",
    "Recorded measurement": 1.01
  },
  {
    "Molecule": "CCCCCC1C(=O)CCC1CC(=O)O (centres undefined)",
    "Recorded measurement": 0.972
  },
  {
    "Molecule": "CCN(CC)C(C)CN1c2ccccc2Sc2ccccc21 (centres undefined)",
    "Recorded measurement": 0.984
  },
  {
    "Molecule": "COC(=O)CCCOc1ccc(Cl)cc1Cl",
    "Recorded measurement": 0.968
  },
  {
    "Molecule": "C[C@]12C=CC(=O)C=C1CCC1C3C[C@@H](O)[C@](O)(C(=O)CO)[C@@]3(C)C[C@H](O)[C@@]12F (some centres undefined)",
    "Recorded measurement": 0.987
  },
  {
    "Molecule": "CN(C)CCOC(=O)C(c1ccccc1)C1(O)CCCC1 (centres undefined)",
    "Recorded measurement": 0.984
  },
  {
    "Molecule": "O=c1cc(-c2ccccc2)oc2cc(O)c(O)cc12",
    "Recorded measurement": 0.967
  },
  {
    "Molecule": "CC(=O)OCC(=O)[C@@]1(O)[C@H](OC(C)=O)CC2C3CCC4=CC(=O)C=C[C@]4(C)[C@@]3(F)[C@@H](O)C[C@@]21C (some centres undefined)",
    "Recorded measurement": 0.983
  },
  {
    "Molecule": "CC(CN1c2ccccc2Sc2ccccc21)N(C)C (centres undefined)",
    "Recorded measurement": 0.972
  },
  {
    "Molecule": "c1ccc2c(c1)CN1CCCC1=N2",
    "Recorded measurement": 0.999
  }
]

###

Assay procedure: chemical genetic growth profiling, strain panel (AID 1159580);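 note: tested at 20 µM; growth read once vehicle control cultures reached saturation at 30 °C; 1 = growth at the plate median or of vehicle wells; lower values mean less growth of the strain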
Measurement setup: S. cerevisiae deletion strains, growth OD, locus YHR079C, strain IRE1
Screen size: about 5,500 compounds; about 2,000 (36%) were called active. About 18% were inconclusive and are not listed. No stated cut-off is given here; in the data, active means normalized growth mostly below about 0.91 (no sharp cut-off); inconclusive means no clear call, values can overlap the other calls; inactive means mostly above about 0.92. The list shows a part of the results.
Outcome codes: 1.0 (active), 0.0 (inactive)

[
  {
    "Compound": "O=C(Nc1ccc(Cl)cc1)O/N=C\\c1ccn(-c2ccccc2)n1",
    "Discrete label": 0.0
  },
  {
    "Compound": "COc1ccc(OC)c(-c2ccn[nH]2)c1OCc1ccccc1",
    "Discrete label": 0.0
  },
  {
    "Compound": "O=C(O)Cc1cc(I)c(Oc2cc(I)c(O)c(I)c2)c(I)c1",
    "Discrete label": 1.0
  },
  {
    "Compound": "O=C(NNc1ccc(Cl)cc1)c1ccc(F)cc1F",
    "Discrete label": 0.0
  },
  {
    "Compound": "N[C@H](Cc1cc(I)c(Oc2ccc(O)c(I)c2)c(I)c1)C(=O)O",
    "Discrete label": 0.0
  },
  {
    "Compound": "CC(CCC(=O)O)[C@H]1CCC2C3CC[C@@H]4C[C@H](O)CC[C@]4(C)C3CC[C@@]21C (stereo partly drawn)",
    "Discrete label": 0.0
  },
  {
    "Compound": "COc1c2ccoc2nc2c(OC)c(OCC(O)C(C)(C)O)ccc12 (stereo not drawn)",
    "Discrete label": 0.0
  },
  {
    "Compound": "CCOC(=O)[C@H](CCc1ccccc1)N[C@@H](C)C(=O)N1Cc2ccccc2C[C@H]1C(=O)O",
    "Discrete label": 0.0
  },
  {
    "Compound": "COc1cc(CC/C(C)=N\\O)ccc1OCc1ccc(Cl)c(Cl)c1",
    "Discrete label": 0.0
  },
  {
    "Compound": "Cc1cc2c(C(C)C)c(O)c(O)c(C=O)c2c(O)c1-c1c(C)cc2c(C(C)C)c(O)c(O)c(C=O)c2c1O",
    "Discrete label": 0.0
  },
  {
    "Compound": "N[C@@H](Cc1cc(I)c(Oc2cc(I)c(O)c(I)c2)c(I)c1)C(=O)O",
    "Discrete label": 0.0
  },
  {
    "Compound": "CC(CCC(=O)O)[C@H]1CCC2C3CC[C@@H]4CCCC[C@]4(C)C3CC[C@@]21C (stereo partly drawn)",
    "Discrete label": 0.0
  },
  {
    "Compound": "Cc1nn(Cc2nnc(SCc3cccc(C(F)(F)F)c3)o2)c(C)c1Br",
    "Discrete label": 0.0
  }
]

###

Assay procedure: chemical genetic growth profiling, strain panel (AID 1159580);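 note: tested at 20 µM; growth read once vehicle control cultures reached saturation at 30 °C; 1 = growth at the plate median or of vehicle wells; lower values mean less growth of the strain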
Measurement setup: S. cerevisiae deletion strains, growth OD, locus YOL006C, strain TOP1
The whole screen tested about 5,500 compounds, of which about 2,000 (36%) were called active. Roughly 18% stayed inconclusive and do not appear here. Rule as the data show it: active = normalized growth mostly below about 0.91 (no sharp cut-off); inconclusive = no clear call, values can overlap the other calls; inactive = mostly above about 0.92. This is one part of the list.
Possible outcomes: T (active), F (inactive)

[
  {
    "Molecule": "COc1c(Cl)ccc(Cl)c1C(=O)O",
    "Discrete label": "F"
  },
  {
    "Molecule": "Cc1cscc1S(=O)(=O)c1ccc(Cl)cc1",
    "Discrete label": "F"
  },
  {
    "Molecule": "NS(=O)(=O)c1cc2c(cc1Cl)NC(C1CC3C=CC1C3)NS2(=O)=O (centres undefined)",
    "Discrete label": "F"
  },
  {
    "Molecule": "CSC(=NC(=O)c1c(Cl)cccc1Cl)SC",
    "Discrete label": "T"
  },
  {
    "Molecule": "Cc1cc(C)cc(OCC2CNC(=O)O2)c1 (centres undefined)",
    "Discrete label": "F"
  },
  {
    "Molecule": "FC(F)(F)c1cc(-n2c(CCc3nc(-c4ccc(Cl)cc4)no3)n[nH]c2=S)cc(C(F)(F)F)c1",
    "Discrete label": "F"
  },
  {
    "Molecule": "COc1ccc(C(=O)N2CCCC2=O)cc1",
    "Discrete label": "F"
  },
  {
    "Molecule": "CC12CC3CC(C)(C1)CC(N)(C3)C2",
    "Discrete label": "F"
  },
  {
    "Molecule": "Cc1c(S(=O)(=O)c2ccc(Cl)cc2)csc1S(=O)(=O)N/N=C\\c1c(Cl)cccc1Cl",
    "Discrete label": "F"
  }
]

###

Assay procedure: chemical genetic growth profiling, strain panel (AID 1159580);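 note: tested at 20 µM; growth read once vehicle control cultures reached saturation at 30 °C; 1 = growth at the plate median or of vehicle wells; lower values mean less growth of the strain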
Measurement setup: S. cerevisiae deletion strains, growth OD, locus YNL224C, strain SQS1
The campaign covered roughly 5,500 compounds. About 2,000 (36%) were called active. Another 18% or so got no clear call; they are omitted. Rule as the data show it: active = normalized growth mostly below about 0.91 (no sharp cut-off); inconclusive = no clear call, values can overlap the other calls; inactive = mostly above about 0.92. The list shows a part of the results.
Classes used: active, inactive

[
  {
    "Compound": "O=c1[nH]cnc2[nH]ncc12",
    "Discrete label": "inactive"
  },
  {
    "Compound": "CCS(=O)(=O)Nc1cccc(C(=C2CCCCC2)c2cnc[nH]2)c1",
    "Discrete label": "inactive"
  },
  {
    "Compound": "O=c1cc(-c2ccc(O)cc2)oc2cc(O)cc(O)c12",
    "Discrete label": "inactive"
  },
  {
    "Compound": "O=[N+]([O-])c1cccc2cn[nH]c12",
    "Discrete label": "inactive"
  },
  {
    "Compound": "CC1CCN(CC[C@H]2CCCN2S(=O)(=O)c2cccc(O)c2)CC1",
    "Discrete label": "inactive"
  },
  {
    "Compound": "CCN1CCC[C@H]1CNC(=O)c1c(OC)ccc(I)c1O",
    "Discrete label": "inactive"
  },
  {
    "Compound": "N[C@@H](Cc1ccc(O)c(I)c1)C(=O)O",
    "Discrete label": "inactive"
  },
  {
    "Compound": "Cc1[nH]c(=O)c(C#N)cc1-c1ccncc1",
    "Discrete label": "inactive"
  },
  {
    "Compound": "N[C@@H](CC(=O)O)C(=O)O",
    "Discrete label": "inactive"
  },
  {
    "Compound": "C[C@H]1C2Cc3ccc(O)cc3[C@]1(C)CCN2CC1CC1",
    "Discrete label": "inactive"
  },
  {
    "Compound": "CN(C)CCOC(=O)COc1ccc(Cl)cc1",
    "Discrete label": "inactive"
  },
  {
    "Compound": "O=c1cc(-c2ccc(O)c(O)c2)oc2cc(O)cc(O)c12",
    "Discrete label": "inactive"
  },
  {
    "Compound": "C#CC(N)CCC(=O)O (stereo not given)",
    "Discrete label": "inactive"
  },
  {
    "Compound": "CS(=N)(=O)CC[C@H](N)C(=O)O (stereo not given in full)",
    "Discrete label": "inactive"
  },
  {
    "Compound": "O=C1NC(c2cccc([N+](=O)[O-])c2)=CCN1c1ccccc1O",
    "Discrete label": "inactive"
  },
  {
    "Compound": "S=C(Nc1ccccc1)Nc1nccs1",
    "Discrete label": "inactive"
  },
  {
    "Compound": "CCn1cnc2c(Nc3cccc(Cl)c3)nc(N[C@@H]3CCCC[C@@H]3N)nc21",
    "Discrete label": "inactive"
  },
  {
    "Compound": "Cc1nc2n(c(=O)c1CCN1CCC(c3noc4cc(F)ccc34)CC1)CCCC2",
    "Discrete label": "inactive"
  },
  {
    "Compound": "CC(N)=O",
    "Discrete label": "inactive"
  },
  {
    "Compound": "CSc1ccc2c(c1)N(CCC1CCCCN1C)c1ccccc1S2 (stereo not given)",
    "Discrete label": "active"
  }
]
